assay: Area under curve for the compound was determined in rats after 2 mg/kg oral dose; format: ADME, organism-based; design: dose 2 mg/kg, route oral; conditions: rat, in vivo, read-out: AUC
reported_metric: AUC
Please answer using the number first and the unit second.

# compound_string, result
measured = [
    ("Cc1nc2cc(OC[C@H](O)CN3CCN(Cc4noc(-c5ccc(C(F)(F)F)cc5)n4)C[C@@H]3C)ccc2s1", "253 ng·h/mL"),
]

// below: AUC requested for another compound
Q: Query: AUC; subject: `Cc1nc2cc(OC[C@H](O)CN3CCN(Cc4noc(-c5ccc(C(F)(F)F)cc5)n4)CC3)ccc2s1`
Ans: 282 ng·h/mL
